Experiment: Thermo Scientific Acclaim RSLC 120 C18, 100 × 2.1 mm, 2.2 µm, 30 °C, 0.2 to 0.48 mL/min, estimated dead time 1.1 min; A: 90% water + 10% methanol + 5 mM ammonium acetate; B: methanol + 5 mM ammonium acetate; gradient (min/%B) 0.1/1 3/39 14/99.9 16/99.9
Details: stereoisomer not certain
The entries below come with measured LC retention time values attached.
reported_endpoint: LC retention time (min)

INSERT INTO assay_data (compound, reported_endpoint, measured) VALUES
  ('NS(=O)(=O)Cc1noc2ccccc12', 'LC retention time', 5.17),
  ('CC12CCC3C(CCC4=CC(=O)CCC43C)C1CCC2=O (stereo not drawn)', 'LC retention time', 13.1),
  ('CS(=O)(=O)c1ccc(C(=O)C2C(=O)CCCC2=O)c([N+](=O)[O-])c1', 'LC retention time', 2.13),
  ('CCOP(=O)(NC(C)C)Oc1ccc(SC)c(C)c1 (stereo not drawn)', 'LC retention time', 10.4),
  ('CC(C)C1(C)N=C(c2nc3ccccc3cc2C(=O)O)NC1=O (stereo not drawn)', 'LC retention time', 4.85),
  ('O=C1CC(C(=O)O)CC(=O)C1=C(O)C1CC1 (stereo not drawn)', 'LC retention time', 1.49),
  ('CC(C)(C)NCC(O)c1cc(O)cc(O)c1 (stereo not drawn)', 'LC retention time', 3.48),
  ('NS(=O)(=O)c1cc(C(=O)O)cc(N2CCCC2)c1Oc1ccccc1', 'LC retention time', 6.04),
  ('CC1CCCCC1NC(=O)Nc1ccccc1 (stereo not drawn)', 'LC retention time', 9.15),
  ('CCOC1OC(C(=O)O)C(O)C(O)C1O (stereo not drawn)', 'LC retention time', 1.35),
  ('CCOP(=S)(NC(C)CC)Oc1cc(C)ccc1[N+](=O)[O-] (stereo not drawn)', 'LC retention time', 11.2),
  ('COCc1cnc(C2=NC(C)(C(C)C)C(=O)N2)c(C(=O)O)c1 (stereo not drawn)', 'LC retention time', 3.74),
  ('CCC(=C(c1ccccc1)c1ccc(OCCN(C)C)cc1)c1ccc(OC)c(O)c1', 'LC retention time', 11.5),
  ('CC(C)CC(C)Nc1ccc(Nc2ccccc2)cc1 (stereo not drawn)', 'LC retention time', 11.8),
  ('C=C(C)C1CCC(C)=CC1c1c(O)cc(CCCCC)cc1O (stereo not drawn)', 'LC retention time', 13.7),
  ('CC1CC(C)C(=O)C(C(O)CC2CC(=O)NC(=O)C2)C1 (stereo not drawn)', 'LC retention time', 6.32),
  ('CNC(=O)Oc1cccc2c1OC(C)(C)C2O (stereo not drawn)', 'LC retention time', 5.09),
  ('Cc1ccc(C)c(OCCCC(C)(C)C(=O)O)c1', 'LC retention time', 10.9);

---

Measured LC retention time by item
Experiment: Thermo Scientific Acclaim RSLC 120 C18, 100 × 2.1 mm, 2.2 µm, 30 °C, 0.2 to 0.48 mL/min, estimated dead time 1.1 min; A: 90% water + 10% methanol + 5 mM ammonium acetate; B: methanol + 5 mM ammonium acetate; gradient (min/%B) 0.1/1 3/39 14/99.9 16/99.9
Conditions: stereoisomer not certain
reported_endpoint: LC retention time (min)

INSERT INTO results (compound, unit_spec, measured) VALUES
  ('CCCCc1c(C)nc(NCC)nc1OS(=O)(=O)N(C)C', 'min', 10.5),
  ('CC[N+]([O-])(CC)CC(=O)Nc1c(C)cccc1C', 'min', 6.56),
  ('CC(=O)CC(c1ccccc1)c1c(O)c2ccccc2oc1=O (stereo not drawn)', 'min', 6.56),
  ('CNC(=N[N+](=O)[O-])NCC1CCOC1 (stereo not drawn)', 'min', 3.59),
  ('Nc1ncnc2c1ncn2C1OC(CO)C(O)C1O (stereo not drawn)', 'min', 3.84),
  ('NC(=O)N1c2ccccc2C2OC2c2ccccc21 (stereo not drawn)', 'min', 8.47),
  ('CC[N+]1([O-])CCCC1CNC(=O)c1cc(S(=O)(=O)CC)c(N)cc1OC (stereo not drawn)', 'min', 4.81),
  ('CCOc1cc(CC(=O)NC(CC(C)C)c2ccccc2N2CCCCC2)ccc1C(=O)O (stereo not drawn)', 'min', 12.8),
  ('CNC(=O)ON=C(C)C(C)S(C)=O (stereo not drawn)', 'min', 3.36),
  ('CC1=CC(=O)CC2CCC3C4CCC(O)C4(C)CCC3C12C (stereo not drawn)', 'min', 13.8),
  ('COc1ccc(Oc2ccc(NC(=O)N(C)C)cc2)cc1', 'min', 8.39),
  ('CCOc1nc2cccc(C(=O)O)c2n1Cc1ccc(-c2ccccc2-c2nn[nH]n2)cc1', 'min', 5.86),
  ('NC(=O)c1ncn(C2OC(CO)C(O)C2O)n1 (stereo not drawn)', 'min', 1.46),
  ('CCOC(=O)NCCOc1ccc(Oc2ccccc2)cc1', 'min', 10.6),
  ('Cc1cccc(C)c1NC(=O)C1CCCCN1C (stereo not drawn)', 'min', 7.49),
  ('O=C(O)c1ccccc1', 'min', 2.88),
  ('COc1ccc2cc(C(C)C(=O)O)ccc2c1 (stereo not drawn)', 'min', 6.74),
  ('Cc1ccc(NS(=O)(=O)N(C)C)cc1', 'min', 7.23),
  ('CC1CC(=O)CC2CCC3C4CCC(O)C4(C)CCC3C12C (stereo not drawn)', 'min', 14.4),
  ('Oc1ccc(C=Cc2cc(O)cc(O)c2)cc1', 'min', 6.82),
  ('O=c1[nH]c(=O)[nH]c(=O)[nH]1', 'min', 1.34),
  ('CCOC(=O)Nc1cccc(OC(=O)Nc2ccccc2)c1', 'min', 8.53),
  ('CCc1cccc(CC)c1N(COC)C(=O)CS(=O)(=O)O', 'min', 8.02);

---

Test: Thermo Scientific Acclaim RSLC 120 C18, 100 × 2.1 mm, 2.2 µm, 30 °C, 0.2 to 0.48 mL/min, estimated dead time 1.1 min; A: 90% water + 10% methanol + 5 mM ammonium acetate; B: methanol + 5 mM ammonium acetate; gradient (min/%B) 0.1/1 3/39 14/99.9 16/99.9
Settings: stereoisomer not certain
Reported LC retention time values follow for various compounds
reported_endpoint: LC retention time

INSERT INTO results (compound, measured) VALUES
  ('NS(=O)(=O)c1ccccc1', '3.92 min'),
  ('CCNc1nc(NCC)[nH]c(=O)n1', '5.56 min'),
  ('CNC(=O)ON=C(C)C(C)S(C)(=O)=O (stereo not given)', '3.67 min'),
  ('CC12C=CC(=O)C=C1CCC1C2C(O)CC2(C)C1CCC2(O)C(=O)CO (stereo not given)', '8.92 min'),
  ('CNC(=O)CSP(=S)(OC)OC', '5.25 min'),
  ('CCCC(CCC)C(=O)O', '7.04 min'),
  ('CCC(=O)OC(OP(=O)(CCCCc1ccccc1)CC(=O)N1CC(C2CCCCC2)CC1C(=O)O)C(C)C (stereo not given)', '13.3 min'),
  ('CCCNC(C)C(=O)Nc1ccccc1C (stereo not given)', '7.49 min'),
  ('COC(=O)C(Cc1ccccc1)NC(=O)C(CC(=O)O)NCCC(C)(C)C (stereo not given)', '10.2 min'),
  ('CCCN(CCC)c1c([N+](=O)[O-])cc(S(N)(=O)=O)cc1[N+](=O)[O-]', '10.2 min');

---

Reported LC retention time values for the following compounds.
Assay: Thermo Scientific Acclaim RSLC 120 C18, 100 × 2.1 mm, 2.2 µm, 30 °C, 0.2 to 0.48 mL/min, estimated dead time 1.1 min; A: 90% water + 10% methanol + 5 mM ammonium acetate; B: methanol + 5 mM ammonium acetate; gradient (min/%B) 0.1/1 3/39 14/99.9 16/99.9
Conditions: stereoisomer not certain
reported_endpoint: LC retention time (min)

INSERT INTO measurements (compound, reported_endpoint, unit_spec, measured) VALUES
  ('CCNCC(=O)Nc1c(C)cccc1C', 'LC retention time', 'min', 5.99),
  ('COCCN(C(=O)CS(=O)(=O)O)c1c(C)cccc1C', 'LC retention time', 'min', 6.16),
  ('Cc1ccc2n[nH]nc2c1', 'LC retention time', 'min', 6.56),
  ('CCOP(=S)(NC(C)C)Oc1ccccc1C(=O)OC(C)C (stereo not given)', 'LC retention time', 'min', 11.2),
  ('Cc1onc(-c2ccccc2)c1-c1ccc(S(N)(=O)=O)cc1', 'LC retention time', 'min', 7.46),
  ('Nc1ncn[nH]1', 'LC retention time', 'min', 1.67),
  ('CC12CCC3c4ccc(O)c(O)c4CCC3C1CCC2=O (stereo not given)', 'LC retention time', 'min', 9.89),
  ('COC(=O)C1CC2=CC(=O)CCC2(C)C23OC2CC2(C)C(CCC24CCC(=O)O4)C13 (stereo not given)', 'LC retention time', 'min', 6.74),
  ('Cc1nnc(-c2ccccc2)c(=O)[nH]1', 'LC retention time', 'min', 5.72),
  ('CCCCCc1cc(O)c2c(c1)OC(C)(C)C1CCC(CO)=CC21 (stereo not given)', 'LC retention time', 'min', 12.3),
  ('CNC(=O)C(=NOC)c1ccccc1COc1cc(C)ccc1C', 'LC retention time', 'min', 10.6),
  ('CC(C)NCC(O)COc1ccc(CC(=O)O)cc1 (stereo not given)', 'LC retention time', 'min', 3.58),
  ('COc1ccc(CC(C)NCC(O)c2ccc(O)c(NC=O)c2)cc1 (stereo not given)', 'LC retention time', 'min', 5.91),
  ('CCc1cccc2c3c([nH]c12)C(CC)(CC(=O)O)OCC3 (stereo not given)', 'LC retention time', 'min', 10.5),
  ('COc1ccc2cc(CCC(C)=O)ccc2c1', 'LC retention time', 'min', 8.54),
  ('O=C(O)c1cccc(Oc2ccccc2)c1', 'LC retention time', 'min', 7.77),
  ('CC(C(=O)O)c1cccc(C(=O)c2ccccc2)c1 (stereo not given)', 'LC retention time', 'min', 6.77),
  ('CC1(c2ccc(Oc3ccccc3)cc2)OC(=O)N(Nc2ccccc2)C1=O (stereo not given)', 'LC retention time', 'min', 11),
  ('CC(C)c1ccc(NC(=O)N(C)C)cc1', 'LC retention time', 'min', 8.29),
  ('CC(=O)NCCCS(=O)(=O)O', 'LC retention time', 'min', 1.46);

The reported numbers originate from the RepoRT retention time repository.
